The measurements presented in this section are drawn from patent US20130102627A1.

target: human DYRK2 (GST-DYRK2) (Homo sapiens, UniProt Q92630); construct: purchased Carna Biosciences, Japan; assay: DYRK2 inhibitor assay (33P incorporation into Woodtide peptide); format: biochemical; conditions: compared with LDN-192960
Sequence (Q92630 whole entry): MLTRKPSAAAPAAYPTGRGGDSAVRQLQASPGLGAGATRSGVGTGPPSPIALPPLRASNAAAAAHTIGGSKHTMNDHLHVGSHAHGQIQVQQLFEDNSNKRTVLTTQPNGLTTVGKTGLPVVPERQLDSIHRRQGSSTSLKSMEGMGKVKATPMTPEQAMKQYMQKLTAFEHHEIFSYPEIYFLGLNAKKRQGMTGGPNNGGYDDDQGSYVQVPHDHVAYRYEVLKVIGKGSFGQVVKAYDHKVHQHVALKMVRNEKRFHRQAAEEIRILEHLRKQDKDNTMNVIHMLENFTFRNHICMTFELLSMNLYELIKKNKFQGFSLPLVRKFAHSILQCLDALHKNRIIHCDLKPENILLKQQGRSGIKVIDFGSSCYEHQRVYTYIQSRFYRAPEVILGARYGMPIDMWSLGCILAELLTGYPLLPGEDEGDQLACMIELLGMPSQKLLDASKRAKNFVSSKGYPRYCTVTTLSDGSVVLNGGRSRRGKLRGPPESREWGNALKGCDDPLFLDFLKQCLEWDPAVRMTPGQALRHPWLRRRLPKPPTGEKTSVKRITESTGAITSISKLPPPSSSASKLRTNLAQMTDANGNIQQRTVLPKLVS
observable: DYRK2 inhibitory activity (SAR, in words)

structure: COc1ccc2nc3ccc(Cl)cc3c(SCCCN)c2c1
assay-result: not as tolerated
--
structure: COc1ccc2nc3ccc(C)cc3c(SCCCN)c2c1
assay-result: not as tolerated

* * *

// values below are reported pIC50
target: human Haspin (MBP-Haspin) (Homo sapiens, UniProt Q8TF76); construct: This full-length Haspin gene was cloned into the pMALc2E vector; made in house; host or cells: E. coli Rosetta2(DE3)pLysS; test: TR-FRET Haspin assay; assay type: biochemical; conditions: text of SAR study
Sequence (Q8TF76 whole entry): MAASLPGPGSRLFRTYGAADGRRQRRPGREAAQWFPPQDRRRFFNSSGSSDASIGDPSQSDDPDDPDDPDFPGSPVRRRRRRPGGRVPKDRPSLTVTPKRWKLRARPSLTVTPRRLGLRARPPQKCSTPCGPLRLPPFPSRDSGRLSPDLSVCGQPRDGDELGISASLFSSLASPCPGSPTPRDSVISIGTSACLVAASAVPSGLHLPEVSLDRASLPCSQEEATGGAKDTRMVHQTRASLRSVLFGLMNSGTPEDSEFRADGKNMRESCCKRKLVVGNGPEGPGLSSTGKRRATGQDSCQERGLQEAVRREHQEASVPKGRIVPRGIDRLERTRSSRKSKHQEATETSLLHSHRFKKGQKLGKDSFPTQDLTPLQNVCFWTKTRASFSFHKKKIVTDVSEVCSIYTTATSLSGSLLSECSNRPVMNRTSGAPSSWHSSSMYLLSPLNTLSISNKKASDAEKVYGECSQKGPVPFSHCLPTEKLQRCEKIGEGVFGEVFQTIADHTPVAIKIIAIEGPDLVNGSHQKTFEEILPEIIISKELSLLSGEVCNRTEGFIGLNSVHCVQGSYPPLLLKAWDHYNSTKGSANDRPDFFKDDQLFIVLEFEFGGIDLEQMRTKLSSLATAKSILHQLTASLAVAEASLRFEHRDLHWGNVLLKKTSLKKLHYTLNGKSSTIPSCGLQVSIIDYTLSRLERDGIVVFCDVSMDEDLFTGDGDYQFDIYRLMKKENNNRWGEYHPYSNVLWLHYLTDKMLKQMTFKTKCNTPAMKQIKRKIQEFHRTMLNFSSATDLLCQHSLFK
pIC50: −log10 of the molar value.
observable: pIC50

structure: COc1ccc2nc3ccccc3c(SCCCN)c2c1
observable: pIC50
assay-result: > 7.00
--
structure: COc1ccc2nc3ccc(Cl)cc3c(SCCCN)c2c1
observable: pIC50
assay-result: > 7.22
--
structure: COc1ccc2nc3ccc(C)cc3c(SCCCN)c2c1
observable: pIC50
assay-result: > 7.00
